Cited source for all entries: paper PMC5540273

system: STK16; conditions: concentration: 1 μM, replicates: in singlicate; n = 1;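 also: KINOMEscan kinase panel screen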
Reported %Inh is given for each of the following compounds.
parameter: %Inh (%)

[[record]]
compound = "COc1ccc(Nc2nccc(N3CCC(NC(=O)Nc4cc(C)ccc4C)C3)n2)cc1 (stereo not drawn)"
parameter = "%Inh"
unitslabel = "%"
recordedmeasurement = 7

[[record]]
compound = "COc1cc2c(cc1OC[C@@H](O)CO)ncc1c3ccc(C#N)cc3[nH]c21"
parameter = "%Inh"
unitslabel = "%"
recordedmeasurement = 0

[[record]]
compound = "Cc1cn2c(=O)cc(N3CCOCC3)nc2n1Cc1cccc(Cl)c1Cl"
parameter = "%Inh"
unitslabel = "%"
recordedmeasurement = 14

[[record]]
compound = "Fc1ccc(-c2nn3c(OCC(F)(F)F)cccc3c2-c2ccncc2)cc1"
parameter = "%Inh"
unitslabel = "%"
recordedmeasurement = 3

[[record]]
compound = "O=C1NC(=O)C(N2CCc3ccccc32)=C1c1cccc(Cl)c1"
parameter = "%Inh"
unitslabel = "%"
recordedmeasurement = 26

[[record]]
compound = "N#Cc1c(N2CCOCC2)sc(-c2ccn[nH]2)c1-c1ccc(Cl)cc1"
parameter = "%Inh"
unitslabel = "%"
recordedmeasurement = 33

[[record]]
compound = "O=c1cc(N2CCOCC2)nc2n(Cc3cccc(C(F)(F)F)c3)ccn12"
parameter = "%Inh"
unitslabel = "%"
recordedmeasurement = 0

[[record]]
compound = "Cn1cc(-c2ccc3c(c2)CCN3C(=O)Cc2ccccc2Cl)c2c(N)ncnc21"
parameter = "%Inh"
unitslabel = "%"
recordedmeasurement = 34

[[record]]
compound = "COc1ccc(S(=O)(=O)NC2CCN(c3cc(C)nc(Nc4cccc(C#N)c4)n3)CC2)cc1.O=C(O)C(F)(F)F"
parameter = "%Inh"
unitslabel = "%"
recordedmeasurement = 3

